Molecular target: HLA-A*02:06
Assay: IEDB peptide-MHC binding, purified MHC/competitive/radioactivity; filed as Kd, often an IC50 or EC50 that approximates it; bounds were set here for any values at or beyond the usual limits of such assays
Conditions: source organism: Vaccinia virus WR
pKd: −log10 of the molar value.
Each entry below carries its recorded pKd.
measured.attribute: pKd

{"chain": "DVEKRILNT", "inequality.symbol": "≤", "recorded.result": 4.11}
{"chain": "TVEFDRDKVV", "inequality.symbol": "≤", "recorded.result": 4.51}
{"chain": "RALKAYFTA", "inequality.symbol": "=", "recorded.result": 7.86}
{"chain": "IICEDAMYYA", "inequality.symbol": "=", "recorded.result": 8.06}
{"chain": "SMYVIPDEL", "inequality.symbol": "=", "recorded.result": 5.55}
{"chain": "SLEATFIDV", "inequality.symbol": "=", "recorded.result": 7.99}
{"chain": "RIYCSLFKNV", "inequality.symbol": "=", "recorded.result": 8.15}
{"chain": "HVLLPFYETL", "inequality.symbol": "=", "recorded.result": 6.94}
{"chain": "DLFMSHVKSV", "inequality.symbol": "=", "recorded.result": 4.70}
{"chain": "HVLLPFYET", "inequality.symbol": "=", "recorded.result": 5.76}
{"chain": "EQYTCNKPYT", "inequality.symbol": "≤", "recorded.result": 4.34}
{"chain": "LLNVQTLISL", "inequality.symbol": "=", "recorded.result": 7.01}
{"chain": "KIKQTGINNV", "inequality.symbol": "=", "recorded.result": 5.59}
{"chain": "AVKFAEESYT", "inequality.symbol": "=", "recorded.result": 5.64}
{"chain": "FLTGTFVTA", "inequality.symbol": "=", "recorded.result": 8.69}
{"chain": "KMAVEVGSI", "inequality.symbol": "=", "recorded.result": 6.92}
{"chain": "LTSNCTRTT", "inequality.symbol": "≤", "recorded.result": 4.39}
{"chain": "AITLVVISVI", "inequality.symbol": "=", "recorded.result": 5.70}
{"chain": "LMTLDDLAI", "inequality.symbol": "=", "recorded.result": 6.54}
{"chain": "DTSPTKRCRL", "inequality.symbol": "≤", "recorded.result": 4.35}
{"chain": "LLKCVSDSWL", "inequality.symbol": "=", "recorded.result": 5.33}
{"chain": "VAEHRFENM", "inequality.symbol": "≤", "recorded.result": 4.32}
{"chain": "STQQNKLVI", "inequality.symbol": "≤", "recorded.result": 4.11}
{"chain": "LVQYRILPMI", "inequality.symbol": "=", "recorded.result": 6.15}
{"chain": "TIILNKIVQL", "inequality.symbol": "=", "recorded.result": 7.52}

###

Target: HLA-A*02:02
Assay: IEDB peptide-MHC binding, purified MHC/competitive/radioactivity; filed as Kd, often an IC50 or EC50 that approximates it; bounds were set here for any values at or beyond the usual limits of such assays
Details: source organism: Vaccinia virus WR
pKd: −log10 of the molar value.
Answer NOT MET if pKd is under 6, and MET if it is 6 or more.

{"chain": "DAIKSNNHLT", "measured.target": "HLA-A*02:02", "label.value": "NOT MET"}
{"chain": "KTPLYYLSGT", "measured.target": "HLA-A*02:02", "label.value": "NOT MET"}
{"chain": "VAEHRFENM", "measured.target": "HLA-A*02:02", "label.value": "NOT MET"}
{"chain": "RALKAYFTA", "measured.target": "HLA-A*02:02", "label.value": "NOT MET"}
{"chain": "SMYVIPDEL", "measured.target": "HLA-A*02:02", "label.value": "MET"}
{"chain": "NIDSIMSMM", "measured.target": "HLA-A*02:02", "label.value": "MET"}
{"chain": "LTSVDIETA", "measured.target": "HLA-A*02:02", "label.value": "NOT MET"}
{"chain": "LVQYRILPMI", "measured.target": "HLA-A*02:02", "label.value": "NOT MET"}
{"chain": "HVLLPFYETL", "measured.target": "HLA-A*02:02", "label.value": "MET"}
{"chain": "DLLLPSTDV", "measured.target": "HLA-A*02:02", "label.value": "NOT MET"}
{"chain": "GILIYDDNI", "measured.target": "HLA-A*02:02", "label.value": "NOT MET"}
{"chain": "DLNAVTTNNL", "measured.target": "HLA-A*02:02", "label.value": "NOT MET"}
{"chain": "KMAVEVGSI", "measured.target": "HLA-A*02:02", "label.value": "MET"}
{"chain": "DVGCLLTDTI", "measured.target": "HLA-A*02:02", "label.value": "NOT MET"}
{"chain": "LISLINSLV", "measured.target": "HLA-A*02:02", "label.value": "MET"}
{"chain": "DLFMSHVKSV", "measured.target": "HLA-A*02:02", "label.value": "NOT MET"}
{"chain": "LMTLDDLAI", "measured.target": "HLA-A*02:02", "label.value": "MET"}
{"chain": "LVMDKNHAI", "measured.target": "HLA-A*02:02", "label.value": "MET"}
{"chain": "KIKQTGINNV", "measured.target": "HLA-A*02:02", "label.value": "MET"}
{"chain": "TVEFDRDKVV", "measured.target": "HLA-A*02:02", "label.value": "NOT MET"}
{"chain": "ATLNTLITL", "measured.target": "HLA-A*02:02", "label.value": "MET"}
{"chain": "DVEKRILNT", "measured.target": "HLA-A*02:02", "label.value": "NOT MET"}
{"chain": "STQQNKLVI", "measured.target": "HLA-A*02:02", "label.value": "NOT MET"}
{"chain": "AITLVVISVI", "measured.target": "HLA-A*02:02", "label.value": "MET"}

###

Molecular target: HLA-A*03:01
Experiment: IEDB peptide-MHC binding, purified MHC/competitive/radioactivity; filed as Kd, often an IC50 or EC50 that approximates it; bounds were set here for any values at or beyond the usual limits of such assays
Settings: source organism: Vaccinia virus WR
Attribute: Kd
measured.attribute: Kd

{"chain": "NSINNQLMY", "measured.target": "HLA-A*03:01", "recorded.result": "4650 nM"}
{"chain": "ISEKETLNEY", "measured.target": "HLA-A*03:01", "recorded.result": "≥ 70100 nM"}
{"chain": "KALMQLTTK", "measured.target": "HLA-A*03:01", "recorded.result": "181 nM"}
{"chain": "RTKLMSNIK", "measured.target": "HLA-A*03:01", "recorded.result": "23.6 nM"}
{"chain": "YVGIKLGDK", "measured.target": "HLA-A*03:01", "recorded.result": "987 nM"}
{"chain": "FMTLVPVLEK", "measured.target": "HLA-A*03:01", "recorded.result": "82.6 nM"}

###

Molecular target: HLA-A*02:02
Test: IEDB peptide-MHC binding, purified MHC/competitive/radioactivity; filed as Kd, often an IC50 or EC50 that approximates it; bounds were set here for any values at or beyond the usual limits of such assays
Conditions: source organism: Vaccinia virus WR

{"chain": "EQGDIALAL", "measured.target": "HLA-A*02:02", "Kd": "701 nM"}
{"chain": "ITDNGPMPYM", "measured.target": "HLA-A*02:02", "Kd": "828 nM"}
{"chain": "EVTPEYIKDL", "measured.target": "HLA-A*02:02", "Kd": "1520 nM"}

Source listed as the Immune Epitope Database (IEDB).
